- EXPERIMENTAL_TARGET: huFXII-his (human) (UniProt P00748)
- Sequence (P00748 20-615, form in doubt): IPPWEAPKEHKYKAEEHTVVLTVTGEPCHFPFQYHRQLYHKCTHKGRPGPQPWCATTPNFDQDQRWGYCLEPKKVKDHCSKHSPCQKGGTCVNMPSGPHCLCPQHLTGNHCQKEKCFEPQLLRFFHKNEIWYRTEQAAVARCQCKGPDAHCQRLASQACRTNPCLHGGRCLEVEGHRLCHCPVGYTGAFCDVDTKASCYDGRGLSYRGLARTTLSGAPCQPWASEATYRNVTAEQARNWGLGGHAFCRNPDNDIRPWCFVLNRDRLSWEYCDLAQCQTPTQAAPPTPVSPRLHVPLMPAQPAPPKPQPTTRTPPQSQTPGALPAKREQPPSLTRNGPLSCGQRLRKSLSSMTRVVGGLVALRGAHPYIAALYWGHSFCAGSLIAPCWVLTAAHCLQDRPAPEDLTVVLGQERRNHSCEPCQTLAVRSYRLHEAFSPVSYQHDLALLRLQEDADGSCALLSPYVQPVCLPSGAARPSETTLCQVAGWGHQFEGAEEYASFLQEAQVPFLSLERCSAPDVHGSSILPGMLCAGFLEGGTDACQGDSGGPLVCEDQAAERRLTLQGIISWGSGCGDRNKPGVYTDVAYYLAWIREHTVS
- ASSAY_NAME: ELISA, huFXII-his coated at 1 µg/ml, HRP anti-human secondary, OD450
Would you mind telling me the reported EC50 of each entry?
Give bare numbers, in µg/mL.

Answered examples (2):
>  <BINDER>
FX-Y17-Y15 (antibody, V domains shown) VH: EVQLLESGGGLVQPGGSLRLSCAGSGFSFGSQTMSWVRQAPGKGLEWVSSISVISGRPYYADSVKGRFTISRDNSKNTLYLQMNSLRAEDTAVYYCTKSHAFDVWGQGTMVTVSS VL: EIVLTQSPATLSVSPGERATLSCRASQSVYSALAWYQQKPGQAPRLLIYGASTRATGIPARFSGSGSGTEFTLTISSLQSEDFAVYYCQQYHKWPLSFGGGTKVEIK

>  <EC50 [µg/mL]>
0.131

$$$$
>  <BINDER>
FX-Y17-Y21 (antibody, V domains shown) VH: EVQLLESGGGLVQPGGSLRLSCAGSGFSFGSQTMSWVRQAPGKGLEWVSSISHISGRTYYADSVKGRFTISRDNSKNTLYLQMNSLRAEDTAVYYCAKSHAFDVWGQGTMVTVSS VL: EIVLTQSPATLSVSPGERATLSCRASQSVYSALAWYQQKPGQAPRLLIYGASTRATGIPARFSGSGSGTEFTLTISSLQSEDFAVYYCQQNNKWPLSFGGGTKVEIK

>  <EC50 [µg/mL]>
0.101

$$$$

Now look at this entry.
Data point: FX-Y17-Y5 (antibody, V domains shown) VH: EVQLLESGGGLVQPGGSLRLSCAGSGFSFGSQTMSWVRQAPGKGLEWVSSISVISGRYYYADSVKGRFTISRDNSKNTLYLQMNSLRAEDTAVYYCTKSHAFDVWGQGTMVTVSS VL: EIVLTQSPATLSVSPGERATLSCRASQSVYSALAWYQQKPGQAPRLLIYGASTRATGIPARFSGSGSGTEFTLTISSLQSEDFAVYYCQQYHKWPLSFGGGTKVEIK ; EC50 = 0.167
